Reported pKd values for the following binders.
biological target: thymidine kinase; test: fluorescence screen, 2 µM binder, 2 and 4 µM TK; estimate for 'hits'
pKd: −log10 of the molar value. Primed or numbered codes have the meaning given here. Ends that are not written are not given here. * marks the point of attachment. dT′ = N3-(decanoic acid)-2'-deoxythymidine (dT probe 19), Cc1cn([C@H]2C[C@H](O)[C@@H](CO)O2)c(=O)n(CCCCCCCCCC(=O)*)c1=O; Dansyl = CN(C)c1cccc2c(S(=O)(=O)*)cccc12

- binder: "Ac-NAADLEAAIRHLAERLAARGPK(dT′)DAK(Dansyl)QLAEQLARAFEAFARAG (designed binder) [3-C25L22-dT]"
  value reported: "> 7.70"
- binder: "Ac-NAADLEAAIK(Dansyl)HLAEALK(dT′)ARGPVDAAQLAEQLARAFEAFARAG (designed binder) [2-C10L17-dT]"
  value reported: "> 7.70"
- binder: "Ac-NAADLEARIK(Dansyl)HLRERLK(dT′)ARGPRDAAQLAEQLARAFERFARAG (designed binder) [4-C10L17-dT]"
  value reported: "> 7.70"

Okay, next one:
Entry under review: Ac-NAADLEAK(dT′)IRHLAEK(Dansyl)LAARGPVDAAQLAEQLARRFEAFARAG (designed binder) [3-C15L8-dT] . Reported pKd? > 7.70
